- Test system: HFF
- assay_notes: Cytotoxicity against human HFF cells by MTT assay
value_type: Activity

C/C(=N\Nc1nc2ccccc2s1)c1ccccn1; Non-Toxic
Cc1ccc(NC(=S)N/N=C/c2ccccc2O)cc1; Toxic
COc1ccc(NC(=S)NNC2=c3ccccc3=NC2=O)cc1; Toxic
Cc1ccc(NC(=S)N/N=C2\C(=O)Nc3ccccc32)cc1; Toxic

Incoming: Entry `Cc1ccc(NC(=S)N/N=C/c2ccccn2)cc1` has what Activity?
Outgoing: Non-Toxic

Incoming: Entry `C/C(=N\NC(=S)Nc1ccc(C)cc1)c1ccccn1` has what Activity?
Outgoing: Non-Toxic

Incoming: Entry `COc1cc(N/N=C(\C)c2ccccn2)ncn1` has what Activity?
Outgoing: Non-Toxic

Incoming: Entry `C/C(=N\Nc1nc2ccccc2s1)c1ccccc1O` has what Activity?
Outgoing: Toxic

###

- assay_notes: Cytotoxicity against human A2780adr cells assessed as inhibition of cell proliferation incubated for 72 hrs by MTT assay
- Type: functional, cell-based
- measurement_context: A2780 ADR, read-out: IC50
Each entry below carries its recorded IC50.
# do not omit the unit; it follows the number

Sample records with IC50:
COc1ccc(NC(=S)N/N=C(\C)c2ccccn2)cc1; 0.031 µM
Cc1ccc(NC(=S)N/N=C/c2ccccn2)cc1; 0.064 µM
O=[N+]([O-])c1ccc(NC(=S)N/N=C/c2ccccn2)cc1; 1.37 µM
COc1cc(N/N=C(\C)c2ccccn2)ncn1; 0.027 µM
COc1ccc(NC(=S)N/N=C2\C(=O)Nc3ccccc32)cc1; 4.84 µM
C/C(=N\Nc1nc2ccccc2s1)c1ccccn1; 0.031 µM
COc1ccc(NC(=S)N/N=C2\C(=O)Nc3ccc(OC(F)(F)F)cc32)cc1; 3.77 µM
Cc1ccc(NC(=S)N/N=C/c2ccccc2O)cc1; 6.01 µM

Incoming: Entry `Oc1ccccc1/C=N/Nc1nc2ccccc2s1` has what IC50?
Outgoing: 6.01 µM

Incoming: Entry `COc1cc(N/N=C/c2ccccn2)ncn1` has what IC50?
Outgoing: 1.95 µM

Incoming: Entry `Cc1ccc(NC(=S)N/N=C2\C(=O)Nc3ccccc32)cc1` has what IC50?
Outgoing: 8.75 µM

Incoming: Entry `COc1ccc(NC(=S)N/N=C/c2ccccc2O)cc1` has what IC50?
Outgoing: 6.95 µM

Incoming: Entry `C(=N\Nc1nc2ccccc2s1)/c1ccccn1` has what IC50?
Outgoing: 0.45 µM

Incoming: Entry `CCc1ccc(/C=N/Nc2cc(OC)ncn2)nc1` has what IC50?
Outgoing: 0.63 µM

Incoming: Entry `CCc1ccc(/C=N/Nc2nc3ccccc3s2)nc1` has what IC50?
Outgoing: 0.62 µM

###

- Tested on: MES-SA
- assay_notes: Cytotoxicity against human MES-SA cells transfected with mCherry fluorescent protein assessed as inhibition of cell proliferation incubated for 72 hrs by fluorescent assay
- Assay type: functional, cell-based
- measurement_context: Homo sapiens, MES-SA, 72 h; read-out: pIC50 (converted)
value_type: log10 of IC50 (log10 of the value in µM)
Units before log transform: µM; reported quantity: IC50; transform: log10.

Sample records with log10 of IC50:
C/C(=N\Nc1nc2ccccc2s1)c1ccccn1; -0.62
C/C(=N\NC(=S)Nc1ccc(C)cc1)c1ccccc1O; 0.99
C/C(=N\Nc1ccccn1)c1cc(C)c2ccccc2n1; -0.54

Incoming: Entry `COc1ccc(O)c(/C=N/Nc2nc3ccccc3s2)c1` has what log10 of IC50?
Outgoing: 1.12

Incoming: Entry `S=C(N/N=C/c1ccccn1)Nc1ccccc1` has what log10 of IC50?
Outgoing: -0.16

###

Each entry below carries its recorded log10(IC50).
- System: KB-V1
- assay_notes: Cytotoxicity against human KB-V1 cells assessed as inhibition of cell proliferation incubated for 72 hrs by MTT assay
- Assay type: functional, cell-based
- measurement_context: KB-V1, 72 h, read-out: pIC50 (converted)
Units before log transform: µM; reported quantity: IC50; transform: log10.

Sample records with log10(IC50):
Cc1ccc(NC(=S)N/N=C/c2ccccc2O)cc1; 0.54
C(=N\Nc1nc2ccccc2s1)/c1ccccn1; -0.09
CCc1ccc(/C=N/NC(=S)Nc2ccc([N+](=O)[O-])cc2)nc1; 0.95

Incoming: Entry `CCc1ccc(/C=N/Nc2cc(OC)ncn2)nc1` has what log10(IC50)?
Outgoing: 0.19

Incoming: Entry `Oc1ccccc1/C=N/Nc1nc2ccccc2s1` has what log10(IC50)?
Outgoing: 1.07

Incoming: Entry `COc1ccc(NC(=S)N/N=C(\C)c2ccccc2N)cc1` has what log10(IC50)?
Outgoing: 1.35

Incoming: Entry `COc1ccc(NC(=S)N/N=C2\C(=O)Nc3ccc(OC(F)(F)F)cc32)cc1` has what log10(IC50)?
Outgoing: 0.59

Incoming: Entry `COc1cc(N/N=C/c2ccccn2)ncn1` has what log10(IC50)?
Outgoing: 0.45

###

- Test system: A2780
- assay_notes: Cytotoxicity against human A2780 cells assessed as inhibition of cell proliferation incubated for 72 hrs by MTT assay
- Format: functional, cell-based
- measurement_context: A2780, 72 h, read-out: IC50
Each entry below carries its recorded pIC50.
The scale used: pIC50 is minus the common logarithm of the concentration in molar units.

Sample records with pIC50:
C(=N\Nc1nc2ccccc2s1)/c1ccccn1; 6.23
COc1cc(N/N=C/c2ccccn2)ncn1; 5.76
C/C(=N\Nc1nc2ccccc2s1)c1ccccn1; 7.03
Oc1ccccc1/C=N/Nc1nc2ccccc2s1; 5.50
CCc1ccc(/C=N/Nc2nc3ccccc3s2)nc1; 6.09

Incoming: Entry `C/C(=N\Nc1nc2ccccc2s1)c1ccccc1O` has what pIC50?
Outgoing: 5.06

Incoming: Entry `CCc1ccc(/C=N/Nc2cc(OC)ncn2)nc1` has what pIC50?
Outgoing: 5.89

Incoming: Entry `Cc1ccc(NC(=S)N/N=C2\C(=O)Nc3ccccc32)cc1` has what pIC50?
Outgoing: 5.01

Incoming: Entry `Cc1ccc(NC(=S)N/N=C/c2ccccn2)cc1` has what pIC50?
Outgoing: 7.32

###

- assay_notes: Selectivity ratio of IC50 for human MES-SA cells to IC50 for human MES-SA/DX5 cells incubated for 72 hrs by MTT assay
- Type: functional
Each entry below carries its recorded Ratio IC50.
Respond using a number only.

Sample records with Ratio IC50:
O=C1Nc2ccccc2/C1=N/NC(=S)Nc1ccc([N+](=O)[O-])cc1; 1.77
Cc1ccc(NC(=S)N/N=C2\C(=O)Nc3ccccc32)cc1; 1.87
CCc1ccc(/C=N/Nc2cc(OC)ncn2)nc1; 1.41
C/C(=N\NC(=S)Nc1ccc(C)cc1)c1ccccn1; 6.25
C/C(=N\Nc1nc2ccccc2s1)c1ccccn1; 17.58

Incoming: Entry `C/C(=N\Nc1nc2ccccc2s1)c1ccccc1O` has what Ratio IC50?
Outgoing: 1.91

Incoming: Entry `C(=N\Nc1nc2ccccc2s1)/c1ccccn1` has what Ratio IC50?
Outgoing: 1.41

Incoming: Entry `COc1cc(N/N=C(\C)c2ccccn2)ncn1` has what Ratio IC50?
Outgoing: 2.62

Incoming: Entry `Oc1ccccc1/C=N/Nc1nc2ccccc2s1` has what Ratio IC50?
Outgoing: 2.04

Incoming: Entry `COc1ccc(NC(=S)N/N=C2\C(=O)Nc3ccccc32)cc1` has what Ratio IC50?
Outgoing: 1.87

Incoming: Entry `C/C(=N\Nc1nc2ccccc2s1)c1ccccc1N` has what Ratio IC50?
Outgoing: 1.64

Incoming: Entry `Cc1ccc(NC(=S)N/N=C/c2ccccn2)cc1` has what Ratio IC50?
Outgoing: 4.55

Incoming: Entry `COc1ccc(NC(=S)N/N=C2\C(=O)Nc3ccc(OC(F)(F)F)cc32)cc1` has what Ratio IC50?
Outgoing: 2.31

Incoming: Entry `CCc1ccc(/C=N/Nc2nc3ccccc3s2)nc1` has what Ratio IC50?
Outgoing: 1.68

Incoming: Entry `COc1ccc(NC(=S)N/N=C(\C)c2ccccn2)cc1` has what Ratio IC50?
Outgoing: 22.59

Incoming: Entry `O=C1Nc2ccccc2/C1=N/NC(=S)Nc1cccc(C(F)(F)F)c1` has what Ratio IC50?
Outgoing: 1.44

###

- System: A2780
- assay_notes: Cytotoxicity against human A2780 cells assessed as inhibition of cell proliferation incubated for 72 hrs by MTT assay
- Format: functional, cell-based
- measurement_context: A2780, 72 h, read-out: pIC50 (converted)
value_type: IC50 (µM)
Your answer should be a plain number; it is taken to be in µM.

C/C(=N\Nc1nc2ccccc2s1)c1ccccc1O; 8.32
COc1ccc(NC(=S)N/N=C2\C(=O)Nc3ccc(OC(F)(F)F)cc32)cc1; 3.24

Incoming: Entry `O=C1Nc2ccccc2/C1=N/NC(=S)Nc1ccc([N+](=O)[O-])cc1` has what IC50?
Outgoing: 24.5

Incoming: Entry `CCc1ccc(/C=N/Nc2cc(OC)ncn2)nc1` has what IC50?
Outgoing: 1.29

Incoming: Entry `COc1ccc(NC(=S)N/N=C(\C)c2ccccc2N)cc1` has what IC50?
Outgoing: 4.27

Incoming: Entry `Oc1ccccc1/C=N/Nc1nc2ccccc2s1` has what IC50?
Outgoing: 3.09

Incoming: Entry `C/C(=N\Nc1nc2ccccc2s1)c1ccccn1` has what IC50?
Outgoing: 0.0891
